tested on: NCI-H720 (Other Solid Carcinomas); test: combination Emax (second highest fraction inhibited in the dose matrix, 72 h); higher = more inhibition; extreme values may be limits of the assay
Rule: combination Emax under 0.5 gives condition not met, otherwise condition met.

Check out these entries, answers already filled in.
INSERT INTO assay_data (compound, class) VALUES
  ('Cc1cc2ncnn2cc1Nc1ncc2c(n1)n(C1CCOCC1)c(=O)n2C [AZD7648] + C=CCn1c(=O)c2cnc(Nc3ccc(N4CCN(C)CC4)cc3)nc2n1-c1cccc(C(C)(C)O)n1 [AZD1775] (first compound max 10 µM, partner max 1 µM)', 'condition met'),
  ('CCN(CCO)CCCOc1ccc2c(Nc3cc(CC(=O)Nc4cccc(F)c4)[nH]n3)ncnc2c1 [AZD2811] + C=CCn1c(=O)c2cnc(Nc3ccc(N4CCN(C)CC4)cc3)nc2n1-c1cccc(C(C)(C)O)n1 [AZD1775] (first compound max 1 µM, partner max 1 µM)', 'condition met'),
  ('COc1cccc(OCCCN)c1-c1cc(Nc2cnc(C#N)cn2)n[nH]1 [Prexasertib] + CCc1c2c(nc3ccc(O)cc13)-c1cc3c(c(=O)n1C2)COC(=O)[C@]3(O)CC [SN-38] (first compound max 1 µM, 7x7, partner max 0.3 µM)', 'condition met'),
  ('COc1cccc2c1C(=O)c1c(O)c3c(c(O)c1C2=O)C[C@@](O)(C(=O)CO)C[C@@H]3O[C@H]1C[C@H](N)[C@H](O)[C@H](C)O1 [Doxorubicin] + Cc1cc2ncnn2cc1Nc1ncc2c(n1)n(C1CCOCC1)c(=O)n2C [AZD7648] (first compound max 1 µM, 7x7, partner max 10 µM)', 'condition not met'),
  ('Cc1cc2ncnn2cc1Nc1ncc2c(n1)n(C1CCOCC1)c(=O)n2C [AZD7648] + CN(C)CCCOc1ccc(-c2ccc3ncc4c(c3c2)n(C2CCOCC2)c(=O)n4C)cn1 [AZD0156] (first compound max 10 µM, 7x7, partner max 1 µM)', 'condition not met');

Kindly review the next compound as well.
[ask] Would you say CCc1c2c(nc3ccc(O)cc13)-c1cc3c(c(=O)n1C2)COC(=O)[C@]3(O)CC [SN-38] + O=C(c1cc(Cc2n[nH]c(=O)c3ccccc23)ccc1F)N1CCN(C(=O)C2CC2)CC1 [Olaparib] (first compound max 0.3 µM, 7x7, partner max 10 µM) shows combination Emax at minimum 0.5?
[reply] condition not met

* * *

Bliss excess values by entry
test system: KMRC-20 (Kidney Carcinoma); assay: Bliss excess, mean over the matrix (fraction); higher = more synergy

These solved cases illustrate the format of a correct answer.
INSERT INTO assay_data (compound, tested_target, obs_value) VALUES
  ('CC(=O)Nc1cccc(-n2c(=O)n(C3CC3)c(=O)c3c(Nc4ccc(I)cc4F)n(C)c(=O)c(C)c32)c1 [Trametinib] + Cc1nc(-c2cn3c(n2)-c2ccc(-c4cnn(C(C)(C)C(N)=O)c4)cc2OCC3)n(C(C)C)n1 [Taselisib] (first compound max 1 µM, 7x7, partner max 10 µM)', 'KMRC-20 (Kidney Carcinoma)', 0.0506),
  ('CN(CCO)CC[C@H](CSc1ccccc1)Nc1ccc(S(=O)(=O)NC(=O)c2ccc(N3CCC([C@@H](O)c4ccccc4-c4ccc(Cl)cc4)CC3)cc2)cc1S(=O)(=O)C(F)(F)F [AZD4320] + CCN(CCO)CCCOc1ccc2c(Nc3cc(CC(=O)Nc4cccc(F)c4)[nH]n3)ncnc2c1 [AZD2811] (first compound max 1 µM, 7x7, partner max 1 µM)', 'KMRC-20 (Kidney Carcinoma)', 0.0024);

Now take the following compound into account.
[ask] What Bliss excess value was documented for this compound, Cc1cc2ncnn2cc1Nc1ncc2c(n1)n(C1CCOCC1)c(=O)n2C [AZD7648] + C[C@@H]1COCCN1C2=NC(=NC(=C2)C3(CC3)[S@](=N)(=O)C)C4=C5C=CNC5=NC=C4 [AZD6738] (first compound max 10 µM, 7x7, partner max 10 µM) ?
[reply] -0.0207

* * *

tested on: EW-11 (Ewing's Sarcoma); assay: Bliss excess, mean over the matrix (fraction); higher = more synergy
Parameter Bliss excess: see the listing below.
Give a plain numeric answer without units written out.

// solved cases for Bliss excess follow
INSERT INTO results (compound, obs_value) VALUES
  ('Cc1c2c(nn1C)CSCc1cc(n(C)n1)CSc1cc(c3ccccc3c1)OCCCc1c(C(=O)O)n(C)c3c-2c(Cl)ccc13 [AZD5991] + CS(=O)(=O)CCNCc1ccc(-c2ccc3ncnc(Nc4ccc(OCc5cccc(F)c5)c(Cl)c4)c3c2)o1 [Lapatinib] (first compound max 1 µM, 7x7, partner max 10 µM)', -0.0014),
  ('CN(CCO)CC[C@H](CSc1ccccc1)Nc1ccc(S(=O)(=O)NC(=O)c2ccc(N3CCC([C@@H](O)c4ccccc4-c4ccc(Cl)cc4)CC3)cc2)cc1S(=O)(=O)C(F)(F)F [AZD4320] + Nc1ccn([C@@H]2O[C@H](CO)[C@@H](O)C2(F)F)c(=O)n1 [Gemcitabine] (first compound max 1 µM, 7x7, partner max 0.3 µM)', 0.0215);

[ask] Query Bliss excess on EW-11 (Ewing's Sarcoma) for CC(=O)Nc1cccc(-n2c(=O)n(C3CC3)c(=O)c3c(Nc4ccc(I)cc4F)n(C)c(=O)c(C)c32)c1 [Trametinib] + Cc1nc(-c2cn3c(n2)-c2ccc(-c4cnn(C(C)(C)C(N)=O)c4)cc2OCC3)n(C(C)C)n1 [Taselisib] (first compound max 1 µM, 7x7, partner max 10 µM)
[reply] 0.0443

* * *

system: SW1710 (Bladder Carcinoma); assay: Bliss excess, mean over the matrix (fraction); higher = more synergy
Result Type: Bliss excess
A bare number is all that is needed in reply.

Record excerpt, results attached:
INSERT INTO measurements (molecule, obs_value) VALUES
  ('CN(CCO)CC[C@H](CSc1ccccc1)Nc1ccc(S(=O)(=O)NC(=O)c2ccc(N3CCC([C@@H](O)c4ccccc4-c4ccc(Cl)cc4)CC3)cc2)cc1S(=O)(=O)C(F)(F)F [AZD4320] + Nc1ccn([C@@H]2O[C@H](CO)[C@@H](O)C2(F)F)c(=O)n1 [Gemcitabine] (first compound max 1 µM, 7x7, partner max 0.3 µM)', -0.0401),
  ('COc1cc2ncnc(Nc3ccc(F)c(Cl)c3)c2cc1OCCCN1CCOCC1 [Gefitinib] + CC(C)n1c(=O)n(C)c2cnc3cc(F)c(-c4ccc(OCCCN5CCCCC5)nc4)cc3c21 [AZD1390] (first compound max 10 µM, 7x7, partner max 0.3 µM)', -0.041),
  ('COc1nnc2ccc(N3CCC(c4ccc(OCCN5CCN(C)C(=O)[C@H]5C)cc4)CC3)nn12 [AZD5153] + C=CCn1c(=O)c2cnc(Nc3ccc(N4CCN(C)CC4)cc3)nc2n1-c1cccc(C(C)(C)O)n1 [AZD1775] (first compound max 1 µM, partner max 1 µM)', -0.0582);

Pending molecule:
[ask] // lookup Bliss excess for NC1(C(=O)N[C@@H](CCO)c2ccc(Cl)cc2)CCN(c2ncnc3[nH]ccc23)CC1 [Capivasertib] + Cn1cnc2c(F)c(Nc3ccc(Br)cc3Cl)c(C(=O)NOCCO)cc21 [Selumetinib] (first compound max 10 µM, 7x7, partner max 10 µM)
[reply] 0.0396

* * *

tested on: ESS-1 (Other Solid Carcinomas); experiment: Bliss excess, mean over the matrix (fraction); higher = more synergy
Result Type: Bliss excess
Answer with a bare number; do not write a unit.

INSERT INTO measurements (molecule, result_type, obs_value) VALUES
  ('CN(C)CCCOc1ccc(-c2ccc3ncc4c(c3c2)n(C2CCOCC2)c(=O)n4C)cn1 [AZD0156] + O=C(c1cc(Cc2n[nH]c(=O)c3ccccc23)ccc1F)N1CCN(C(=O)C2CC2)CC1 [Olaparib] (first compound max 3 µM, partner max 3 µM)', 'Bliss excess', 0.0655),
  ('CCN(CCO)CCCOc1ccc2c(Nc3cc(CC(=O)Nc4cccc(F)c4)[nH]n3)ncnc2c1 [AZD2811] + C=CCn1c(=O)c2cnc(Nc3ccc(N4CCN(C)CC4)cc3)nc2n1-c1cccc(C(C)(C)O)n1 [AZD1775] (first compound max 1 µM, partner max 1 µM)', 'Bliss excess', 0.042),
  ('COc1nnc2ccc(N3CCC(c4ccc(OCCN5CCN(C)C(=O)[C@H]5C)cc4)CC3)nn12 [AZD5153] + C[C@@H]1COCCN1C2=NC(=NC(=C2)C3(CC3)[S@](=N)(=O)C)C4=C5C=CNC5=NC=C4 [AZD6738] (first compound max 1 µM, 7x7, partner max 10 µM)', 'Bliss excess', -0.0192);

[ask] Return reported Bliss excess; argument: CN(C)CCCOc1ccc(-c2ccc3ncc4c(c3c2)n(C2CCOCC2)c(=O)n4C)cn1 [AZD0156] + C=CCn1c(=O)c2cnc(Nc3ccc(N4CCN(C)CC4)cc3)nc2n1-c1cccc(C(C)(C)O)n1 [AZD1775] (first compound max 1 µM, partner max 1 µM)
[reply] -0.124
